# settings: in ethyl acetate, 318.15 K
measurement.kind: solubility (mole fraction)
Answers are plain numbers.

[ask] Can you look up the measured solubility (mole fraction) of C=CC(=O)N1CCC[C@@H](n2nc(-c3ccc(Oc4ccccc4)cc3)c3c(N)ncnc32)C1 for me?
[reply] 0.00952

----------
# settings: in n-butanol, 313.15 K
measurement.kind: solubility (mole fraction)

[ask] Can you look up the measured solubility (mole fraction) of C=CC(=O)N1CCC[C@@H](n2nc(-c3ccc(Oc4ccccc4)cc3)c3c(N)ncnc32)C1 for me?
[reply] 0.00694

----------
# settings: in acetonitrile, 313.15 K
measurement.kind: solubility (mole fraction)
Answers are plain numbers.

[ask] Can you look up the measured solubility (mole fraction) of C=CC(=O)N1CCC[C@@H](n2nc(-c3ccc(Oc4ccccc4)cc3)c3c(N)ncnc32)C1 for me?
[reply] 0.00256

----------
# settings: in acetone, 318.15 K
measurement.kind: solubility (mole fraction)
Answers are plain numbers.

[ask] Can you look up the measured solubility (mole fraction) of C=CC(=O)N1CCC[C@@H](n2nc(-c3ccc(Oc4ccccc4)cc3)c3c(N)ncnc32)C1 for me?
[reply] 0.0125

----------
# settings: in MTBE, 313.15 K
measurement.kind: solubility (mole fraction)
One number for each entry.

[ask] Can you look up the measured solubility (mole fraction) of C=CC(=O)N1CCC[C@@H](n2nc(-c3ccc(Oc4ccccc4)cc3)c3c(N)ncnc32)C1 for me?
[reply] 0.000454

----------
# settings: in acetone, 323.15 K
measurement.kind: solubility (mole fraction)

[ask] Can you look up the measured solubility (mole fraction) of C=CC(=O)N1CCC[C@@H](n2nc(-c3ccc(Oc4ccccc4)cc3)c3c(N)ncnc32)C1 for me?
[reply] 0.0144

----------
# settings: in ethyl acetate, 278.15 K
measurement.kind: solubility (mole fraction)
One number for each entry.

[ask] Can you look up the measured solubility (mole fraction) of C=CC(=O)N1CCC[C@@H](n2nc(-c3ccc(Oc4ccccc4)cc3)c3c(N)ncnc32)C1 for me?
[reply] 0.00312

----------
# settings: in ethyl acetate, 303.15 K
measurement.kind: solubility (mole fraction)
Give bare numbers.

[ask] Can you look up the measured solubility (mole fraction) of C=CC(=O)N1CCC[C@@H](n2nc(-c3ccc(Oc4ccccc4)cc3)c3c(N)ncnc32)C1 for me?
[reply] 0.00618

----------
# settings: in n-butanol, 303.15 K
measurement.kind: solubility (mole fraction)
Numbers only.

[ask] Can you look up the measured solubility (mole fraction) of C=CC(=O)N1CCC[C@@H](n2nc(-c3ccc(Oc4ccccc4)cc3)c3c(N)ncnc32)C1 for me?
[reply] 0.00423
